- Assay Procedure: A549 lung cancer cell viability effects, profiling panel, resazurin fluorescence, 24 h, PK04 Diversity Set (AID 1171); note: test concentration not given here
- Cond: higher = more signal, called active from +8 up or from −8 down
Active and inactive are the calls of the source.
Please respond with reported z-score for every item in the list.

Exam item: Return reported z-score; argument: `COc1cccc([C@H]2Oc3ccc(OC)cc3C(=NOC[C@@H](C)[C@H](OCc3ccccc3)C(C)C)[C@@H]2O)c1`
Marked response: 0.385 (inactive)

Exam item: Now the same for `CCCNC(=O)OC[C@H]1O[C@H](CCON=C(C)CCN2CCCc3nc(C)c(C)cc32)C=C[C@@H]1Oc1ccc(OC)cc1`
Marked response: 1.21 (inactive)

Exam item: Now the same for `C=COC[C@@H]1CN2[C@@H](CC[C@@H](C)[C@@H]2c2ccc(Br)cc2)C(=O)O1`
Marked response: 0.378 (inactive)

Exam item: Now the same for `COc1cccc([C@H]2Oc3ccc(OC)cc3C(=NO[C@@H](C)c3cn([C@H](CO)Cc4ccccc4)nn3)[C@@H]2O)c1`
Marked response: -0.819 (inactive)

Exam item: Now the same for `CC(C)=NO[C@H](C)c1cn([C@H](CO)Cc2ccccc2)nn1`
Marked response: 0.268 (inactive)

Exam item: Now the same for `CC(CCN1CCCCc2nc(C)c(C)cc21)=NOC[C@@H](O)COCc1ccco1`
Marked response: -0.701 (inactive)

Exam item: Now the same for `C#CCCCON=C1C[C@@H](O)[C@@H](O)[C@@H]2[C@@H]3C(=O)N(CCC(=O)OCC)C(=O)[C@@H]3CC[C@H]12`
Marked response: -1.11 (inactive)

Exam item: Now the same for `CON=Cc1ccc(C(=O)N2[C@H](c3ccc(C)cc3)[C@@H](C)CC[C@H]2C(=O)OC)cc1`
Marked response: 1.03 (inactive)

###

Please respond with reported z-score for every item in the list.
- System Under Test: NADPH oxidase 4 (Homo sapiens) (UniProt Q9NPH5)
- Sequence (Q9NPH5 whole entry, looked up): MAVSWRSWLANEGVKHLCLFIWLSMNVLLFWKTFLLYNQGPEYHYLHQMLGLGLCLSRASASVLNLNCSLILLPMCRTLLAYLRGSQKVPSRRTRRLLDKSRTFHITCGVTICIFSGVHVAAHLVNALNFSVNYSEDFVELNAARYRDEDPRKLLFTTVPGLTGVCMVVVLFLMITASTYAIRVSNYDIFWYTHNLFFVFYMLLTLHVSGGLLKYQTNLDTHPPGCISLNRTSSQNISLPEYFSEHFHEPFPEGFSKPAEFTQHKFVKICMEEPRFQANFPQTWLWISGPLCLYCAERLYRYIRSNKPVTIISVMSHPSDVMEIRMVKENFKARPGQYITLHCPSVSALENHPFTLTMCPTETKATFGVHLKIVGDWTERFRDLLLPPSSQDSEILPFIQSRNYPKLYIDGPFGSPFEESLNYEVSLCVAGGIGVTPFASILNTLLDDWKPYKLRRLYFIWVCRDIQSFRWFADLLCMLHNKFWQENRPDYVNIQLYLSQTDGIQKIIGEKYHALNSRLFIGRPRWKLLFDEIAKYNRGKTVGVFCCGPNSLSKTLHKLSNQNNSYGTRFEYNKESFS
- Assay Procedure: NOX4-dependent H2O2 signal modulators, primary screen, NOX inhibitor project, cell-based, HEK293-NOX4, tetracycline-induced, Amplex Red fluorescence (AID 1160)
- Cond: 45 min, higher = more signal, called active from +8 up or from −8 down
# print the numeric value only

Exam item: Return reported z-score; argument: `COc1ccc(O[C@H]2C=C[C@@H](c3ccccc3)O[C@@H]2CON=C2[C@H]3CCn4c(=O)n(-c5ccccc5)c(=O)n4[C@H]3[C@H](O)[C@@H]3O[C@H]23)cc1`
Marked response: -0.132

Exam item: Now the same for `C#CCCCON=C1[C@H]2CCn3c(=O)n(C)c(=O)n3[C@H]2[C@H](O)[C@@H]2O[C@H]12`
Marked response: -0.124

Exam item: Now the same for `COc1ccc(COC(=O)NN=C2C[C@@H](O)[C@@H](O)[C@@H]3[C@@H]4C(=O)N(Cc5ccccc5)C(=O)[C@@H]4CC[C@H]23)cc1`
Marked response: 0.954

###

- System Under Test: Torsin-1A-interacting protein 2 (Homo sapiens) (UniProt Q8NFQ8)
- Sequence (Q8NFQ8 whole entry, looked up): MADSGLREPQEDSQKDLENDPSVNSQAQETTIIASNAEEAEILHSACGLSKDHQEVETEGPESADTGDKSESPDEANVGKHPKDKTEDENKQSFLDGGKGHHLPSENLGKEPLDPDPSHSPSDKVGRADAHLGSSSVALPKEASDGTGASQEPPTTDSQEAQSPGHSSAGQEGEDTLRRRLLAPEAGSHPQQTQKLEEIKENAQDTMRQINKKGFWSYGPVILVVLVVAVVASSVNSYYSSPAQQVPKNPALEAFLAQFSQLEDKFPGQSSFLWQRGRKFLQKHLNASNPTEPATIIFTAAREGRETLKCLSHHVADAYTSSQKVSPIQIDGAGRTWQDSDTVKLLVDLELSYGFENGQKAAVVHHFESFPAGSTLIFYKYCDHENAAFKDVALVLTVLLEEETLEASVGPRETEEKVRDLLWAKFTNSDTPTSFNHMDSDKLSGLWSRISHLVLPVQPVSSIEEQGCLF
- Assay Procedure: LULL1 binders on small-molecule microarray, primary screen, cell lysate, human LULL1 lysate, 635/667 nm fluorescence (AID 1092);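 note: probe is lysate of COS7 cells overexpressing human LULL1; score merges per-feature 667 nm fluorescence with signal-to-noise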
- Cond: hLULL1 lysate binding, 635 nm fluorescence, higher = more signal
Label rule, in plain words: composite z-score of 0.3 and up is Condition met, under 0.3 is Condition not met.

Exam item: Decide: composite z-score of COc1cccc([C@H]2Oc3ccc(OC)cc3C(=NOC(C)CN3CCCCc4nc(C)c(C)cc43)[C@@H]2O)c1 (stereo partly drawn) >= 0.3?
Marked response: Condition met

Exam item: Now the same for CCOC(=O)[C@H](Cc1ccccc1)NC(=O)CCC1CC(OC(=O)NCc2ccc3c(c2)OCO3)CC2(CCCC(COC(=O)NCCC(C)C)O2)O1 (stereo partly drawn)
Marked response: Condition met

Exam item: Now the same for `COc1cccc([C@H]2Oc3ccc(OC)cc3C(=NOC[C@@H](O)[C@H]3O[C@@H]4OC(C)(C)O[C@@H]4[C@H]3O)[C@@H]2O)c1`
Marked response: Condition met

Exam item: Now the same for `COC(=O)[C@H]1O[C@@H](c2c(OC)c(OC)c(C)c(OC)c2OC)[C@H](C)[C@@H](O)[C@H]1C`
Marked response: Condition met

Exam item: Now the same for `CO[C@H]1COC(=O)CC=C[C@H](C)[C@@H](OC)COC(=O)[C@@H](C)NC(=O)CC=C[C@@H]1C`
Marked response: Condition not met

Exam item: Now the same for `C[C@@H]1NC(=O)[C@@H](C)COC(=O)[C@H](C)NC(=O)[C@@H](C)COC1=O`
Marked response: Condition met

Exam item: Now the same for `CO[C@@H]1C=CCC(=O)N2CCC[C@H]2C(=O)OC[C@@H](C)C(=O)OC[C@H]1C`
Marked response: Condition not met

Exam item: Now the same for `C[C@@H]1C=CCC(=O)OC[C@H]2O[C@@H](C=C[C@@H]2O)[C@H](C)C=CCC(=O)OC1`
Marked response: Condition not met

###

- Assay Procedure: small-molecule microarray binders of probe aCHRDL2, primary screen, biochemical, biotinylated probe, 635/667 nm fluorescence (AID 1100)
- Cond: higher = more signal
Observable: composite z-score
# print the numeric value only

Exam item: Return reported composite z-score; argument: `O=C1C[C@@H](O)[C@@H](O)[C@@H]2[C@@H]3C(=O)N(C[C@@H]4CCCO4)C(=O)[C@@H]3CC[C@H]12`
Marked response: -0.577

Exam item: Now the same for `O=c1n(-c2ccccc2)c(=O)n2n1CC[C@@H]1C(=NOCc3ccccc3)[C@H]3O[C@H]3[C@@H](O)[C@@H]12`
Marked response: -0.393

Exam item: Now the same for `C[C@@H](c1ccccc1)N1C(=O)[C@H]2[C@H]3[C@H](O)[C@H](O)CC(=NO[C@@H]4O[C@H](CO)[C@@H](O)[C@H](O)[C@H]4O)[C@@H]3CC[C@H]2C1=O`
Marked response: -0.62

Exam item: Now the same for `CC(=O)OC[C@H]1O[C@H](CCON=C2[C@H]3CCn4c(=O)n(-c5ccccc5)c(=O)n4[C@H]3[C@H](O)[C@@H]3O[C@H]23)C=C[C@@H]1OC(C)=O`
Marked response: -0.442

###

- Assay Procedure: basal 3T3-L1 adipocyte mitochondrial potential changes, profiling panel, cell-based, JC-1 fluorescence, 3T3-L1 adipocytes, 24 h, 100 nL compound (AID 1168); note: test concentration not given here
- Cond: JC-1 mitochondrial fluorescence, higher = more signal, called active from +8 up or from −8 down
Just so you know, the groups by z-score go like this: low = under -0.5, moderate = from -0.5 up to 0.1, high = 0.1 and over

Exam item: Category of `CC(C)CON=C1[C@H]2CCn3c(=O)n(Cc4cc5c(cc4Cl)OCO5)c(=O)n3[C@H]2[C@H](O)[C@@H]2O[C@H]12` :
Marked response: moderate

Exam item: Now the same for Cc1cc2c(nc1C)CCCCN2CC(C)ON=C[C@@H](C)[C@H](OCc1ccccc1)C(C)C (stereo not given in full)
Marked response: low

Exam item: Now the same for CC(=O)O[C@H]1C2=CO[C@H](C)[C@H]3[C@H]4C5=C([C@H](O)[C@H]6O[C@H]6C5=O)[C@H](OC4C)[C@@]23C(=O)[C@@H]2O[C@@H]21 (stereo not given in full)
Marked response: high

Exam item: Now the same for CCOC(=O)[C@H](Cc1ccccc1)NC(=O)CCC1CC(OC(=O)NCc2cccc3ccccc23)CC2(CCCC(COC(=O)NCc3ccccc3)O2)O1 (stereo not given in full)
Marked response: moderate

Exam item: Now the same for `C[C@@H](ON=C1[C@H]2CCn3c(=O)n(-c4ccccc4)c(=O)n3[C@H]2[C@H](O)[C@@H]2O[C@H]12)c1cn([C@@H]2COC[C@H]2O)nn1`
Marked response: low

Exam item: Now the same for CCOC(=O)[C@H](Cc1ccccc1)NC(=O)CCC1CC(OC(=O)NCc2ccc3c(c2)OCO3)CC2(CCCC(COC(=O)NCCC(C)C)O2)O1 (stereo not given in full)
Marked response: moderate

Exam item: Now the same for `CC(C)=CCCC(C)=CCON=C1C[C@@H](O)[C@@H](O)[C@@H]2[C@@H]3C(=O)N(C[C@@H]4CCCO4)C(=O)[C@@H]3CC[C@H]12`
Marked response: low

Exam item: Now the same for `CC(=O)Nc1ccc([C@@H]2N[C@H](C(=O)O)CC[C@H]2C)cc1`
Marked response: high

Exam item: Now the same for COCCNC(=O)OCC1CCCC2(CC(OC(=O)NCc3ccc4c(c3)OCO4)CC(CCC(=O)N[C@@H](C)C(=O)OC)O2)O1 (stereo not given in full)
Marked response: low

Exam item: Now the same for `C#CCCCON=C1C[C@@H](O)[C@@H](O)[C@@H]2[C@@H]3C(=O)N(CCC(=O)OCC)C(=O)[C@@H]3CC[C@H]12`
Marked response: moderate

Exam item: Now the same for `C=CC[C@@H]1C=C[C@H](ON=C[C@@H](C)[C@H](OCc2ccccc2)C(C)C)[C@@H](CO)O1`
Marked response: low

Exam item: Now the same for `C#CCCCON=C1[C@H]2CCn3c(=O)n(-c4ccccc4)c(=O)n3[C@H]2[C@H](O)[C@@H]2O[C@H]12`
Marked response: high

Exam item: Now the same for `COc1cc(O)c(C(=O)C=Cc2ccc3c(c2)OCO3)c(OC)c1`
Marked response: low

Exam item: Now the same for CCOC(=O)[C@H](CC(C)C)NC(=O)CCC1CC(OC(=O)NCCc2ccc(F)cc2)CC2(CCCC(COC(=O)NCCc3ccc(Cl)cc3)O2)O1 (stereo not given in full)
Marked response: high

Exam item: Now the same for `CC(C)CCN1CCc2nc(COc3ccccc3)c3c(c2C1)CO[C@@H](C)C3`
Marked response: moderate

Exam item: Now the same for `C#CCCCON=C1[C@H]2CCn3c(=O)n(C)c(=O)n3[C@H]2[C@H](O)[C@@H]2O[C@H]12`
Marked response: high

Exam item: Now the same for CC(C)C[C@H](NC(=O)CCC1CC(OC(=O)NCc2cccc3ccccc23)CC2(CCCC(COC(=O)NCc3ccccc3)O2)O1)C(=O)NCC(c1ccccc1)c1ccccc1 (stereo not given in full)
Marked response: high

Exam item: Now the same for `CCN1C(=O)[C@H]2[C@H]3[C@H](O)[C@H](O)CC(=NNC(=O)OCc4ccc(OC)cc4)[C@@H]3CC[C@H]2C1=O`
Marked response: low

Exam item: Now the same for COC(=O)[C@H](C)NC(=O)CCC1CC(OC(=O)NCc2ccc3c(c2)OCO3)CC2(CCCC(COC(=O)NCc3cccc(C(F)(F)F)c3)O2)O1 (stereo not given in full)
Marked response: moderate

Exam item: Now the same for `CC(C)(C)N1C(=O)[C@H]2[C@H]3[C@H](O)[C@H](O)CC(=NOCc4ccccc4)[C@H]3CC[C@H]2C1=O`
Marked response: high

Exam item: Now the same for `CCCCC#C[C@@H]1C=C[C@H](Oc2ccc(C(=O)OC)cc2)[C@@H](COC(=O)OCC)O1`
Marked response: high

Exam item: Now the same for COC(=O)[C@H](C)NC(=O)CCC1CC(OC(=O)NCc2ccc3c(c2)OCO3)CC2(CCCC(COC(=O)NCC3CCCCC3)O2)O1 (stereo not given in full)
Marked response: moderate

Exam item: Now the same for `O=c1n(Cc2cc3c(cc2Cl)OCO3)c(=O)n2n1CC[C@@H]1C(=NOCc3ccccc3)[C@H]3O[C@H]3[C@@H](O)[C@@H]12`
Marked response: high

Exam item: Now the same for `Cc1ccc(S(=O)(=O)N[C@@H]2COC(=O)[C@@H](C)COC(=O)CC=C[C@H]2C)cc1`
Marked response: moderate

Exam item: Now the same for `CO[C@H]1COC(=O)[C@@H](C)COC(=O)[C@H](C)NC(=O)CC=C[C@H]1C`
Marked response: high

Exam item: Now the same for `C=CC[C@@H]1C=C[C@H](ON=C(C)CCC(=O)OC[C@H]2O[C@H](c3ccccc3)C=C[C@@H]2Oc2ccc(OC)cc2)[C@@H](CO)O1`
Marked response: moderate

Exam item: Now the same for `CC(C)=CCCC(C)=CCON=C1C[C@@H](O)[C@@H](O)[C@@H]2[C@@H]3C(=O)N(C4CCCCC4)C(=O)[C@@H]3CC[C@@H]12`
Marked response: low

Exam item: Now the same for `COC(=O)CC=C[C@@H](C)[C@@H]1C=C[C@H](O)[C@@H](CO)O1`
Marked response: low

Exam item: Now the same for CCOC(=O)[C@H](CC(C)C)NC(=O)CCC1CC(OC(=O)NCc2cccc3ccccc23)CC2(CCCC(COC(=O)NCCc3ccc(Cl)cc3)O2)O1 (stereo not given in full)
Marked response: high
